- targetEntity: CD3 (antigen of the binding affinity table of Example 1) (UniProt P07766)
- runDescription: kinetic fit with two-state parameters; method not given
kon: recorded values
Give just the numeric value; M⁻¹ s⁻¹ need not be written.

>  <binder>
H4L1 (antibody, V domains shown) VH: QVQLQQSGAEVKKPGASVKMSCKASGYTFTRYTMHWVRQAPGQGLEWIGYINPSRGYTNYNQKFKDRVTLTTDTSISTAYMELSRLRSDDTAVYYCARYYDDHYSLDYWGQGTTLTVSS VL: DIQMTQSPSSLSASVGDRVTMTCSASSSVSYMNWYQQKPGKAPKRLIYDTSKLASGVPSRFSGSGSGTDFTLTISSLQPEDFATYYCQQWSSNPFTFGSGTKLEINR

>  <kon (M⁻¹ s⁻¹)>
1.77e+06

$$$$
>  <binder>
H3L2 (antibody, V domains shown) VH: QVQLVQSGAEVKKPGASVKMSCKASGYTFTRYTMHWVRQAPGQGLEWIGYINPSRGYTNYNQKFKDRATMTTDKSISTAYMELSRLRSDDTAVYYCARYYDDHYSLDYWGQGTTLTVSS VL: DIQMTQSPSSLSASVGDRVTMTCSASSSVSYMNWYQQKPGKAPKLLIYDTSKLASGVPSRFSGSGSGTDFTLTISSMQPEDFATYYCQQWSSNPFTFGSGTKLEINR

>  <kon (M⁻¹ s⁻¹)>
3.06e+06

$$$$

Alright, here's another binder for you.
For record H4L4 (antibody, V domains shown) VH: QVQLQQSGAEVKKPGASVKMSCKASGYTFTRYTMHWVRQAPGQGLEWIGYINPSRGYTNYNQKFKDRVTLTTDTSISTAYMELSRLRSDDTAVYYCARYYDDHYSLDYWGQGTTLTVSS VL: DIQLTQSPSSLSASVGDRVTITCSASSSVSYMNWYQQKPGKAPKLLIYDTSKLASGVPSRFSGSGSGTDFTLTISSMQPEDFATYYCQQWSSNPFTFGSGTKLEINR the listed kon is 1.75e+06
